experimental-protocol: Viability qHTS for spleen associated tyrosine kinase inhibitor (SYKi) drug resistant MV4-11 cells (AID 1963824); note: nearly all actives have a fitted effect of over 35% in size
conditions: SYKi-resistant MV4-11 viability, CellTiter-Glo, 72 h; series mostly up to 45 µM
Results filed as inconclusive are left out. The source made the active and inactive calls. Calls come from the whole dose curve; as a rule, active = well fitted cell-killing curve with a large enough effect; inconclusive = small, poorly fitted or top-dose-only effect, or effect the other way; inactive = no such curve, though single readings can be large or run the other way.
Your answer must be one of the following: 1 = active, -1 = inactive

Take a look at these entries with their results.
[
  {
    "molecule": "O=C1CSC(=O)N1C(CCc1ccncc1)COc1ccc(-c2cccc([N+](=O)[O-])c2)cc1 (stereo not drawn)",
    "assigned-label": 1
  },
  {
    "molecule": "CCc1nc(-c2cccc(C)c2)c(-c2ccnc(NC(=O)c3ccccc3)c2)s1",
    "assigned-label": 1
  },
  {
    "molecule": "C[C@H]1[C@H](C)CC[C@]2(C(=O)O)CC[C@]3(C)C(=CCC4[C@@]5(C)C[C@@H](O)[C@H](O)C(C)(C)C5CC[C@]43C)[C@H]12 (stereo partly drawn)",
    "assigned-label": -1
  },
  {
    "molecule": "O=C(c1ccc(F)cc1)C1CCN(CCn2c(=O)[nH]c3ccccc3c2=O)CC1",
    "assigned-label": 1
  },
  {
    "molecule": "C=C1[C@H](OC(=O)/C=C(\\C)CC)C[C@@H](C(C)C)[C@@H]2[C@H]([C@@H](C)OC(C)=O)C(=O)C[C@@H]12",
    "assigned-label": 1
  },
  {
    "molecule": "Nc1ccc(-c2cccc3c(=O)cc(N4CCOCC4)oc23)cc1",
    "assigned-label": 1
  },
  {
    "molecule": "CC(C)(C)Nc1nc2cc(Cl)c(Cl)cc2nc1S(C)(=O)=O",
    "assigned-label": 1
  },
  {
    "molecule": "O=C(COCC(=O)N1CCN(C(c2ccccc2)c2ccccc2)CC1)Nc1ccc(Cl)cc1C(=O)O",
    "assigned-label": -1
  },
  {
    "molecule": "CC[C@@](C)(Nc1ccnc(-c2c[nH]c3ncccc23)n1)C(=O)NCC(F)(F)F",
    "assigned-label": 1
  },
  {
    "molecule": "O=C1N=C(N2CCOCC2)CN1c1ccc(Cl)cc1",
    "assigned-label": -1
  }
]

Ask: Recorded test outcome, item O=C(O)CCCC[P+](c1ccccc1)(c1ccccc1)c1ccccc1
Result: -1

Ask: GET /call?item= C[C@@H]1CC2OC(=O)C3=C2C(CCC3O)[C@@]12C[C@@H](c1ccoc1)OC2=O (stereo partly drawn) returns the recorded outcome of this test.
Result: -1

Ask: Tell me the assay call for COc1ccc(OC)c(C(O)CNC(=O)CN)c1 (stereo not drawn) please.
Result: -1

Ask: What is the recorded call for this molecule in the test? Cc1ncc(Cl)cc1NCc1ccc(C(=O)NC(CC2CCCC2)C(=O)NC2CC2)s1 (stereo not drawn)
Result: 1

Ask: Answer briefly: the call reported for O=C(Nc1ccccc1)N1CCN(c2nc(-c3ccccc3)ns2)CC1 in this assay.
Result: 1

Ask: Outcome? CC(C)(C#N)c1ccc(N2C(=O)OCc3cnc4ccc(-c5cnc6ccccc6c5)cc4c32)cc1
Result: 1

Ask: // outcome(item) with item = Cc1ccc([C@@H]2CC=C(C(=O)O)[C@H](c3ccc(C(C)(C)C)cc3)N2S(=O)(=O)c2ccc(C)cc2)cc1
Result: 1

Ask: Outcome logged for CCOC(=O)[C@H]1O[C@@H]1C(=O)N[C@@H](CC(C)C)C(=O)NCCC(C)C in this assay:
Result: 1

Recorded values, source PubChem BioAssay (NCATS).
